Exercise: for every item that follows, state its recorded inhibition.
# System name: Casein kinase I isoform gamma-2 (Homo sapiens) (UniProt P78368)
# Sequence (P78368 whole entry, looked up, canonical isoform): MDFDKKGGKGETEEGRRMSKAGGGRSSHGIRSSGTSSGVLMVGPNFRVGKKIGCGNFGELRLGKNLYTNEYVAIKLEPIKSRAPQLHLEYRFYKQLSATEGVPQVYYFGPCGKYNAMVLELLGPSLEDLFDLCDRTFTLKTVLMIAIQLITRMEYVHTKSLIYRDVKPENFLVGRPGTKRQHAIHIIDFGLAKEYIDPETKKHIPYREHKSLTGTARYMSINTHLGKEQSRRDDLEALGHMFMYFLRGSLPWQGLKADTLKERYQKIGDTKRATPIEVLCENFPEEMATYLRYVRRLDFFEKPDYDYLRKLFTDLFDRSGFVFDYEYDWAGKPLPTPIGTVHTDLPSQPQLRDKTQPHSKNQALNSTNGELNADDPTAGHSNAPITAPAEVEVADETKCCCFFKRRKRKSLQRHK
# Assay setup: at 1 µM
# Description: GSK_PKIS: CK1-g2 mean inhibition at 1 uM [Nanosyn]

State, in one line, measured inhibition of COc1cc(Nc2nccc(Nc3ccc4c(C)n[nH]c4c3)n2)cc(OC)c1OC
9.2%

# return recorded inhibition for entry c1cc(-c2cnn3nc(N4CCOCC4)ccc23)nc(NC2CC2)n1
10.4%

Give inhibition for the following molecule: O=C(O[C@H]1CN[C@H](C#Cc2cc3ncnc(Nc4ccc(Cc5ccccc5)cc4)c3s2)C1)N1CCOCC1
2.93%

Hello, please tell me recorded inhibition for this one: CCN1CCC(CC(=O)Nc2n[nH]c3nnc(-c4cccc(F)c4F)cc23)CC1
-0.19%

Report inhibition, nothing else, for this molecule: Cc1cccc(Nc2ncc(-c3ccccc3)o2)c1
3.38%

Please give measured inhibition of the following entry: COc1cc(N2CCN(C(C)C)CC2)ccc1Nc1nc(Nc2ccc(F)cc2C(N)=O)c2cc[nH]c2n1
40.8%

Supply inhibition value. Item: Nc1ncc(-c2cccc(S(N)(=O)=O)c2)c2scc(-c3ccc(F)c(Cl)c3)c12
3.79%

Please report inhibition for the following molecule: CC(=O)Nc1cccc(C#Cc2cncnc2Nc2ccc(OCc3cccc(F)c3)c(Cl)c2)c1
2.49%

Look up and state reported inhibition for COc1ccc(CNC(=O)c2ccc(-c3cc(-c4nnc(C)o4)ccc3C)cc2)cc1
0.62%

Output measured inhibition for this item: O=S(=O)(CCNCc1ccc(-c2ccc3ncnc(Nc4ccc(OCc5cccc(F)c5)c(Cl)c4)c3c2)o1)c1ccccc1
5.75%

Return inhibition (reported value) for this molecule: NS(=O)(=O)c1ccc(Nc2ncc(-c3ccccc3)o2)cc1
4.34%

In one line, give reported inhibition of the entry NS(=O)(=O)c1ccc(N/N=C2\C(=O)Nc3ccc4ncccc4c32)cc1 .
7.05%

Supply reported inhibition belonging to this molecule: CS(=O)(=O)CCNCc1ccc(-c2ccc3ncnc(Nc4ccc(OCc5ccccc5)c(C(F)(F)F)c4)c3c2)o1
4.2%

Check the records and state inhibition for CNC(=O)c1cccc(C#Cc2cncnc2Nc2ccc(OCc3cccc(F)c3)c(Cl)c2)c1
1.26%

Return reported inhibition. Input molecule: COc1cc2c(cc1Nc1nc(Nc3ccsc3C(N)=O)c3cc[nH]c3n1)N(C(=O)CN(C)C)CCC2(C)C
20.6%

Dear colleague, please send me the reported inhibition for c1ccc(COc2ccc(Nc3ncnc4ccc(-c5ccco5)cc34)cc2)cc1 when you can.
0.91%

Give reported inhibition value for CCOc1ccc2c(-c3ccnc(Nc4cccc(C(F)(F)F)c4)n3)cnn2n1
3.07%

Please give the documented inhibition of Cc1ccc(O)cc1Nc1ccnc2cc(-c3ccccn3)ccc12
6.53%

Return reported inhibition. Input molecule: Nc1nc(-c2cccc(Cl)c2)c(-c2ccc3ncccc3n2)s1
13.7%

State its inhibition: CCN(CC)S(=O)(=O)c1ccc(OC)c(Nc2ncc(-c3ccccc3)o2)c1
-0.29%

In one line, give reported inhibition of the entry CCn1c(-c2nonc2N)nc2ccccc21 .
2.97%

Respond only with inhibition recorded for CS(=O)(=O)CCNCc1coc(-c2ccc3ncnc(Nc4ccc(OCc5ccccc5)cc4)c3c2)c1
1.86%

State, in one line, measured inhibition of COc1cccc(-c2c[nH]c3c(N/N=C/c4ccncc4)ncnc23)c1
4.26%

---

I'd be grateful if you could share measured inhibition for these entries.
# System name: Serine/threonine-protein kinase Nek7 (Homo sapiens) (UniProt Q8TDX7);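 also: figures are averaged percent inhibition of NEK7 kinase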
# Sequence (Q8TDX7 whole entry, looked up): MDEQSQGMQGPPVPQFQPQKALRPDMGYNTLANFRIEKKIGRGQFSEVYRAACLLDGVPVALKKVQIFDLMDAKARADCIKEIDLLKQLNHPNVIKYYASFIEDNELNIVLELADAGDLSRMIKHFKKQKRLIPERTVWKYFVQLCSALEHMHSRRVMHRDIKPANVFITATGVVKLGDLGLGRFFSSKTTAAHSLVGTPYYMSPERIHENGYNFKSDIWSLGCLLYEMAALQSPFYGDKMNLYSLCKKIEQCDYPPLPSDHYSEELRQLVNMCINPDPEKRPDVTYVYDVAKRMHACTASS
# Assay setup: at 0.1 µM
The response must be a number in % with no trailing unit.

Indicate its recorded inhibition; the molecule in question is COc1cc(/C=N/Nc2ncnc3[nH]ncc23)ccc1O
4.07

Retrieve inhibition measured for CS(=O)(=O)CCNCc1coc(-c2ccc3ncnc(Nc4ccc(OCc5ccccc5)cc4)c3c2)c1 and print it.
2.37

Input CN1CCC(n2cnc(-c3ccc(F)cc3)c2-c2ccnc(Nc3ccccc3)n2)CC1 , output reported inhibition.
2.94

// Input: [O-][S+]1CCN(Cc2ccc(-c3ccc4ncnc(Nc5ccc(OCc6cccc(F)c6)c(Cl)c5)c4c3)o2)CC1 . Output its inhibition only.
2.99

Fill in inhibition for record COc1ccc(-c2cc3c(N)ncnc3o2)cc1
-2.18

State its inhibition for this molecule: CS(=O)(=O)CCNCc1ccc(-c2ccc3ncnc(Nc4ccc(OCc5ccccc5)c(C(F)(F)F)c4)c3c2)o1
2.28

Consider the molecule COc1ccc(-c2oc3ncnc(N)c3c2-c2ccc(NC(=O)Nc3cc(C(F)(F)F)ccc3F)cc2)cc1 and give its recorded inhibition.
3.58

Answer with reported inhibition of COc1ccc(CNC(=O)c2ccc(-c3cc(-c4nnc(C)o4)ccc3C)cc2)cc1
1.72

Assign inhibition to the following record: COc1cc2ncn(-c3cc(OCc4ccccc4C(F)(F)F)c(C(=O)N(C)C)s3)c2cc1OC
2.1

Item COC(=O)c1sc(-n2cnc3cc(OC)c(OC)cc32)cc1OCc1ccccc1C(F)(F)F : provide inhibition
6.92

Entry CC(C)COC(=O)c1ccc2c(c1)/C(=C/Nc1ccc(S(N)(=O)=O)cc1)C(=O)N2 needs its inhibition filled in; supply it.
0.03

Identify measured inhibition corresponding to N#Cc1c(NC(=O)CN2CCOCC2)sc2c1CCCC2
2.96

Fill in reported inhibition for this entry: NS(=O)(=O)c1ccc(Nc2ncc(-c3ccccc3)o2)cc1
2.06

Supply inhibition value. Item: COc1cccc(-c2c[nH]c3c(N/N=C/c4ccncc4)ncnc23)c1
2.88

Supply recorded inhibition for Nc1ncc(-c2cccc(S(N)(=O)=O)c2)c2scc(-c3ccc(F)c(Cl)c3)c12 here.
3.41

Using known records, supply inhibition for NS(=O)(=O)c1ccc(N/N=C2\C(=O)Nc3ccc4ncccc4c32)cc1
4.59

Query inhibition for CNC(=O)c1cc(-c2ccc(F)cc2)cc(-c2ccc(S(=O)(=O)N3CCCC3)cc2)c1N
3.41

State, in one line, measured inhibition of Nc1nc(-c2ccc(F)cc2)c(-c2ccc3ncccc3n2)s1
3.03

Look up and report measured inhibition for this entry: Cc1cccc2c1NC(=O)/C2=N\Nc1ccc(S(N)(=O)=O)cc1
2.43

Tell me inhibition reported for CCc1nn2ncccc2c1-c1ccnc(NC2CC2)n1
1.99

Give the reported inhibition for this molecule. Nc1nc(-c2cccc(Cl)c2)c(-c2ccc3ncccc3n2)s1
1.99

Output inhibition of CCn1c(-c2nonc2N)nc2ccccc21
2.9

Note down inhibition recorded for COc1ccc2c(-c3ccnc(Nc4cccc(OC(F)(F)F)c4)n3)cnn2n1
3.37

Assign inhibition to the following record: c1ccc(COc2ccc(Nc3ncnc4ccc(-c5ccco5)cc34)cc2)cc1
-0.99

Specify reported inhibition for the molecule shown: CCN1CCC(CC(=O)Nc2n[nH]c3nnc(-c4cccc(F)c4F)cc23)CC1
2.55

Check the records and state inhibition for COc1cc(N2CCN(C(C)C)CC2)ccc1Nc1nc(Nc2ccc(F)cc2C(N)=O)c2cc[nH]c2n1
2.07

Please give the documented inhibition of N#Cc1c(NC(=O)c2ccc(F)cc2)sc2c1CCCC2
2.7

Tell me inhibition reported for CCn1c(-c2nonc2N)nc2cnc(Oc3cccc(NC(=O)c4ccc(N(C)C)cc4)c3)cc21
3.09

Provide measured inhibition value, entry: COc1ccc(-c2cc(-c3c[nH]nc3-c3ccccn3)ccn2)cc1
2.27

Using the record for Fc1ccc(-c2nn3ccccc3c2-c2ccncc2)cc1 , state its measured inhibition.
3.72

Please report the measured inhibition for CCNC(=O)O[C@H]1CN[C@H](C#Cc2cc3ncnc(Nc4ccc(OCc5cccc(F)c5)c(Cl)c4)c3s2)C1
3.85

Give a short answer stating reported inhibition for CNC(=O)c1cccc(C#Cc2cncnc2Nc2ccc(OCc3cccc(F)c3)c(Cl)c2)c1 .
0.01

Please report the measured inhibition for COc1cc(Nc2nccc(Nc3ccc4c(C)n[nH]c4c3)n2)cc(OC)c1OC
3.64

Tell us which inhibition value is on record for Fc1ccc(-c2nn3ncccc3c2-c2ccnc(Nc3ccc4c(c3)OCCO4)n2)cc1
6.98

In one line, give reported inhibition of the entry Fc1ccc(-c2cc(-c3c[nH]nc3-c3ccccn3)ccn2)cc1 .
6.08

Please list inhibition recorded for the molecule CC1=C(C(=O)Nc2cc(Cl)c3[nH]ncc3c2)C(c2ccc(C(F)(F)F)cc2)CC(=O)N1 (stereo not given)
4.35

Provide one value: measured inhibition of CN(C)CCOc1ccc(-c2nc(-c3ccncc3)c(-c3ccc4c(c3)CC/C4=N\O)[nH]2)cc1
1.62

Fill in reported inhibition for this entry: COc1ccc(-c2nn3ncccc3c2-c2ccnc(Nc3ccc4c(c3)OCCO4)n2)cc1
2.18

Item COC(=O)Nc1nc2ccc(S(=O)(=O)c3ccc(NC(=O)Nc4cc(C(F)(F)F)ccc4F)cc3)cc2[nH]1 : provide inhibition
2.46

Give recorded inhibition. c1cc(-c2cnn3nc(N4CCOCC4)ccc23)nc(NC2CC2)n1
3.89
